Tested on: MS2 coat protein
test summary: apparent KD of MS2 coat protein; designed switch direction (-1 OFF switch, 1 ON switch): 1; higher = weaker reporter binding
conditions: input ligand: FMN 200 uM
property: apparent KD of MS2 coat protein (nM)
The reply should contain only the number, in nM.

Entry UUAAUUUACUGAGGAUAUCGUGUCGACUGAGGUGACAUGAGGAUCACCCAUGUGAGAAGAGGUAUCGAGAAGGCAGUAUUCAUA [JR_SSNG2_Sub021] (Eterna round: R96, puzzle: Same State NG 2) , system MS2 coat protein: what apparent KD of MS2 coat protein was measured? 317

Entry UUAACAUGAGGAUCACCCAUGUAUAGGGAGUUAGCAAUUUGACAGGAUAUUGAAGAUGUAGAUAGCAAGAAGGGUCGGUAGUCU [JR_SSNG3_Sub003] (Eterna round: R96, puzzle: Same State NG 3) , system MS2 coat protein: what apparent KD of MS2 coat protein was measured? 39.9

Entry UAAAAACAUGAGGAUCACCCAUGUGAAAAUAUGGGAGGAUAUACAAAGACGAGAGUCAAAGUAGAAGGCCUAAAAU [Mat - Same State 1 - Eli mod - D88] (Eterna round: R96, puzzle: Same State 1) , system MS2 coat protein: what apparent KD of MS2 coat protein was measured? 21.9

***
Entry AAUCGUUUGAUAGGAUAUCGUUAUACAUGAGGAUCACCCAUGUUUACCACGCUGGUUUUUCGUACCGAGAAGGAUUCUGAUGAU [JL JR sub007 mod 6] (Eterna round: R96, puzzle: Same State NG 2) , system MS2 coat protein: what apparent KD of MS2 coat protein was measured? 30.5

###

System: MS2 coat protein
test summary: apparent KD of MS2 coat protein; higher = weaker reporter binding
conditions: Eterna round: R107; input ligand: none
property: apparent KD of MS2 coat protein (nM)
The reply should contain only the number, in nM.

// worked examples, apparent KD of MS2 coat protein included
Entry GGACUAACCAGAAGGAGCGACACAGCAGAAACUGCAAAUCCUCCGCACGAGGAUCACCCGUGUCAGGUAGGUCGCUGGUUAGUCG [ArgBX 28] , system MS2 coat protein: what apparent KD of MS2 coat protein was measured? 49.5

Entry UGUAUGGACUGAAGGAGCGCCUCAAAAUAACAUGAGGAUCACCCAUGUGGCGAAAGCCUUGGGCAGGUAGGUCGCAGUCCAUACU [ArgBX 1 #StaticStem] , system MS2 coat protein: what apparent KD of MS2 coat protein was measured? 49.9

Entry UGUAUGGACUGAAGGAGCGCCUCAAAAUAGCAUGAGGAACACCCAUGCAAGGCGAAAGCCGGGCAGGUAGGUCGCAGUCCAUACU [ArgBX 3] , system MS2 coat protein: what apparent KD of MS2 coat protein was measured? 20.3

Entry UGGUGUAGGGUAAAUAGGAUUAGUACAGAAGGAGCGCGAAUAAACGCAGGUAGGUCGCUGGAAUAAACAUGAGGAUCACCCAUGU [Same State Arginine A GF 27] , system MS2 coat protein: what apparent KD of MS2 coat protein was measured? 19.2

Entry AACAUGUGGAUCACCCAUGUAUGUUCUGAAGGAGCGCCACAUGAGGCAGGUAGGUCGCAGGUACAUGAGGAUCACCCAUGUGUCA [Exclusion Arginine A 4] , system MS2 coat protein: what apparent KD of MS2 coat protein was measured? 192

Entry GUAAUUAUAAGAAGGAGCGUCGAAAAUGGGUAAACAUGAGGAUCACCCAUGUAAAGGGAACGACAGGUAGGUCGCUUAUGAUUAC [AstromonsSSArgB#22] , system MS2 coat protein: what apparent KD of MS2 coat protein was measured? 185

Entry GCUAGGUCUACGGCCGCCACUAGACGUGGGUAAGACAUGAGGAUCACCCAUGUACUACAGGCGAAUAGGACCGGGUAGACCUAGC [SSTB NP+V+V2 #12 Same Structure] , system MS2 coat protein: what apparent KD of MS2 coat protein was measured? 36.4

For the next question, use this sequence.
Entry AGCACUGUGACGGCCGCCACUAUAUUAGGGUGGUAGGGUUCAUAAAUACAUGAGGAUCACCCAUGUAGGACCGGGUCUCAGUGCA [Omei Trp Exc B A v1] , system MS2 coat protein: what apparent KD of MS2 coat protein was measured? 12.1
